Assay system: T1, human CD28 (human, UniProt P10747 19-220, On cells CD28 is a disulfide linked homodimer and a glycoprotein; one copy of the chain is given.)
T1 construct: also called T-cell specific surface glycoprotein CD28
T1 sequence (P10747 19-220 limits assumed): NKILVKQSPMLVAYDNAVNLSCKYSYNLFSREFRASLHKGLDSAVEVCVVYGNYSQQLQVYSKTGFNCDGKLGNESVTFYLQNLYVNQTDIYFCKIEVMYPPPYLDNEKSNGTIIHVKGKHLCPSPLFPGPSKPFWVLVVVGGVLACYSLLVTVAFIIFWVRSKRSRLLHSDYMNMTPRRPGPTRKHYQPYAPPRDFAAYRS
Protocol notes: flow cytometry, PE-conjugated antibody on fresh human peripheral blood cells, CD3/CD28 gating
Value type: S/N Ratio
One number for each entry.

Tell me S/N Ratio reported for exemplary anti-CD28 antibody AB2 (antibody, V domains shown, Mouse hybridoma monoclonal antibody; also called antibody 2; clone 2) VH: QVQLQQPGSELMRPGASVKLSCKASGYTFTSYWMHWVKQRHGQGLEWIGNIYPGSGRTIYDEKFKSKATLTVDTSSSTAYMHLSSLTSEDSAVFYCTRSHYGSSFDAMDYWGQGTSVTVSS VL: DIQVNQSPSSLSASLGDTITITCHASQNIYVWLNWYQQKPGNIPKLLIYKASNLHTGVPSRFSGSGSGTGFTLTISSLQPEDIATYYCQQGQSYPWTFGGGTKLEIK 207

Origin of the recorded values: patent US20250052767A1
